biological target: PCP recognition sites (PCP receptor); assay: [^3 H]TCP Radioreceptor Assay (internal screen); details: whole rat brain membranes, [^3 H]TCP approx. 1 nM, room temperature 25 min; mean of at least two separate determinations
Counter-ions that a name gives are not always drawn.
Kindly state Ki for each of the entries shown.
Give the number; nM is assumed, so skip it.

stdin: Checklist item: Ki tested on PCP recognition sites (PCP receptor), entry c1ccc2c(c1)C1C3CCCC3C2N2CCCCC12 (stereo not shown) [Example 9a, hydrobromide] , value?
stdout: 15.4

stdin: Checklist item: Ki tested on PCP recognition sites (PCP receptor), entry Oc1cccc2c1C1C3CCCC3C2N2CCCCC12 (stereo not shown) [Example 12b, hydrobromide] , value?
stdout: 2.29

stdin: Checklist item: Ki tested on PCP recognition sites (PCP receptor), entry [O-][N+]12CCCCC1C1c3ccccc3C2C2CCCC21 (stereo not shown) [Example 14] , value?
stdout: 33.1

stdin: Checklist item: Ki tested on PCP recognition sites (PCP receptor), entry Brc1ccc2c(c1)C1C3CCCC3C2N2CCCCC12 (stereo not shown) [Example 4, hydrobromide] , value?
stdout: 43.7

---

Kindly state log10 of Ki for each of the entries shown.
Molecular target: PCP recognition sites (PCP receptor)
Assay: [^3 H]TCP Radioreceptor Assay (internal screen)
Conditions: whole rat brain membranes, [^3 H]TCP approx. 1 nM, room temperature 25 min; mean of at least two separate determinations
Description: [^3 H]TCP Radioreceptor Assay (internal screen) [^3 H]TCP binding to PCP recognition sites was performed as described by Vignon et al. Brain Research 1983, 280, 194-197. Male Spmgue-Dawley rats were sacrificed by decapitation, and whole brains were homogenized in 10 volumes (wt/vol) of cold Tris-HCl buffer (50 mM, pH 7.7) using a Brinkmann Polytron (setting 6, 30 sec). The homogenate was centrifuged at 40,000×g for 10 min at 4° C. […]
Where a name gives a salt, the structure may show the parent alone.
Hello, just confirming the data are log10 of Ki with units of nM.

stdin: Checklist item: log10 of Ki tested on PCP recognition sites (PCP receptor), entry CC12c3ccccc3C(C3CCCC31)N1CCCCC12 (stereo not shown) , value?
stdout: 1.60

stdin: Checklist item: log10 of Ki tested on PCP recognition sites (PCP receptor), entry Oc1ccc2c(c1)C1C3CCCC3C2C2CCCCN21 (stereo not shown) [Example 3b, hydrobromide] , value?
stdout: 1.45

stdin: Checklist item: log10 of Ki tested on PCP recognition sites (PCP receptor), entry C[N+]12CCCCC1C1c3ccccc3C2C2CCCC21 (stereo not shown) , value?
stdout: 1.35

stdin: Checklist item: log10 of Ki tested on PCP recognition sites (PCP receptor), entry c1ccc2c(c1)C1c3ccccc3C2N2CCCCC12 (stereo not shown) , value?
stdout: 2.52

stdin: Checklist item: log10 of Ki tested on PCP recognition sites (PCP receptor), entry c1ccc2c(c1)C1C3CCCCC3C2N2CCCCC12 (stereo not shown) [Example 11] , value?
stdout: 2.34

stdin: Checklist item: log10 of Ki tested on PCP recognition sites (PCP receptor), entry Nc1ccc2c(c1)C1C3CCCC3C2N2CCCCC12 (stereo not shown) , value?
stdout: 1.07

stdin: Checklist item: log10 of Ki tested on PCP recognition sites (PCP receptor), entry c1ccc2c(c1)C1C3CCCCC3C2N2CCCCC12 (stereo not shown) [Example 1a] , value?
stdout: 2.13

stdin: Checklist item: log10 of Ki tested on PCP recognition sites (PCP receptor), entry Fc1ccc2c(c1)C1C3CCCC3C2N2CCCCC12 (stereo not shown) , value?
stdout: 1.30

stdin: Checklist item: log10 of Ki tested on PCP recognition sites (PCP receptor), entry CC12c3ccccc3C(C3CCCC31)C1CCCCN12 (stereo not shown) , value?
stdout: 0.95

stdin: Checklist item: log10 of Ki tested on PCP recognition sites (PCP receptor), entry Oc1ccc2c(c1)C1C3CCCC3C2N2CCCCC12 (stereo not shown) [Example 10b, hydrobromide] , value?
stdout: 0.36

Just for reference, patent US5434159A is where these values come from.
